Test system: MCF7
Experiment: cells
Details: Homo sapiens, MCF7, 72 h
Description: Antiproliferative activity against human MCF7 cells assessed as cell growth inhibition after 72 hrs by MTT assay
Readout kind: pIC50
Numbers only, as −log10 of the molar value.

Examples from the recorded data:
Line notation: C[C@]12CC[C@H](OC(=O)Cn3cc(COc4ccc(C(=O)/C=C/c5ccc(F)c(F)c5)cc4)nn3)CC1=CC[C@@H]1[C@@H]2CC[C@]2(C)C(=O)CC[C@@H]12
Target of assay: MCF7
Endpoint result: 4.03
--
Line notation: C[C@]12CC[C@H](OC(=O)Cn3cc(COc4ccc(Br)cc4)nn3)CC1=CC[C@@H]1[C@@H]2CC[C@]2(C)C(=O)CC[C@@H]12
Target of assay: MCF7
Endpoint result: 4.03
--
Line notation: C[C@]12CC[C@H](OC(=O)Cn3cc(CNc4ccc(Br)cc4)nn3)CC1=CC[C@@H]1[C@@H]2CC[C@]2(C)C(=O)CC[C@@H]12
Target of assay: MCF7
Endpoint result: 4.56
--
Line notation: C[C@]12CC[C@H](OC(=O)Cn3cc(COc4ccc(/C=C/C(=O)c5ccc(F)cc5)cc4)nn3)CC1=CC[C@@H]1[C@@H]2CC[C@]2(C)C(=O)CC[C@@H]12
Target of assay: MCF7
Endpoint result: 4.04
--
Line notation: C[C@]12CC[C@H](OC(=O)Cn3cc(CNc4cccc([N+](=O)[O-])c4)nn3)CC1=CC[C@@H]1[C@@H]2CC[C@]2(C)C(=O)CC[C@@H]12
Target of assay: MCF7
Endpoint result: 4.34

API: the following record is the query input.
[ask] Report pIC50 for C[C@]12CC[C@H](OC(=O)Cn3cc(COc4ccc(C(=O)/C=C/c5ccc(Br)cc5)cc4)nn3)CC1=CC[C@@H]1[C@@H]2CC[C@]2(C)C(=O)CC[C@@H]12
[reply] 3.95

---

Experiment: Antiproliferative activity against human MGC803 cells assessed as cell growth inhibition after 72 hrs by MTT assay
Format: functional, cell-based
Details: MGC-803, 72 h
So I've got a bunch of compounds here, and I need their IC50 values.
Give bare numbers, in µM.

Examples from the recorded data:
Line notation: C[C@]12CC[C@H](OC(=O)Cn3cc(CN4C(=O)C(=O)c5cc(Br)ccc54)nn3)CC1=CC[C@@H]1[C@@H]2CC[C@]2(C)C(=O)CC[C@@H]12
Readout kind: IC50
Units symbol: µM
Endpoint result: 32.5
--
Line notation: C[C@]12CC[C@H](OC(=O)Cn3cc(CNc4ccc(Br)cc4)nn3)CC1=CC[C@@H]1[C@@H]2CC[C@]2(C)C(=O)CC[C@@H]12
Readout kind: IC50
Units symbol: µM
Endpoint result: 19.4

API: the following record is the query input.
[ask] Report IC50 for C[C@]12CC[C@H](OC(=O)Cn3cc(CN4C(=O)C(=O)c5c(Cl)ccc(Cl)c54)nn3)CC1=CC[C@@H]1[C@@H]2CC[C@]2(C)C(=O)CC[C@@H]12
[reply] 5.95

---

So I've got a bunch of compounds here, and I need their IC50 values.
Experiment: Antiproliferative activity against human MGC803 cells assessed as cell growth inhibition after 72 hrs by MTT assay
Format: functional, cell-based
Settings: MGC-803, 72 h
One number for each entry, in µM.

Line notation: C[C@]12CC[C@H](OC(=O)Cn3cc(COc4ccc(C(=O)/C=C/c5ccc([N+](=O)[O-])cc5)cc4)nn3)CC1=CC[C@@H]1[C@@H]2CC[C@]2(C)C(=O)CC[C@@H]12
IC50 (µM): 99.5

Consider the following items and state reported IC50 for each.
1. C[C@]12CC[C@H](OC(=O)Cn3cc(COc4ccc(Br)cc4)nn3)CC1=CC[C@@H]1[C@@H]2CC[C@]2(C)C(=O)CC[C@@H]12
2. C[C@]12CC[C@H](OC(=O)Cn3cc(CN4C(=O)C(=O)c5cc(Cl)ccc54)nn3)CC1=CC[C@@H]1[C@@H]2CC[C@]2(C)C(=O)CC[C@@H]12
3. C[C@]12CC[C@H](OC(=O)Cn3cc(CNc4cccc([N+](=O)[O-])c4)nn3)CC1=CC[C@@H]1[C@@H]2CC[C@]2(C)C(=O)CC[C@@H]12

[reply]
1. 48.2
2. 57.8
3. 28.6

---

So I've got a bunch of compounds here, and I need their pIC50 values.
Tested on: MCF7
Assay: cells
Conditions: Homo sapiens, MCF7, 72 h
Answers are plain numbers, as −log10 of the molar value.

Line notation: C[C@]12CC[C@H](OC(=O)Cn3cc(COc4ccccc4[N+](=O)[O-])nn3)CC1=CC[C@@H]1[C@@H]2CC[C@]2(C)C(=O)CC[C@@H]12
Target of assay: MCF7
pIC50: 4.35
--
Line notation: COc1ccc(NCc2cn(CC(=O)O[C@H]3CC[C@@]4(C)C(=CC[C@@H]5[C@@H]4CC[C@]4(C)C(=O)CC[C@@H]54)C3)nn2)cc1
Target of assay: MCF7
pIC50: 4.67

API: the following record is the query input.
[ask] Report pIC50 for Cc1ccc(OCc2cn(CC(=O)O[C@H]3CC[C@@]4(C)C(=CC[C@@H]5[C@@H]4CC[C@]4(C)C(=O)CC[C@@H]54)C3)nn2)cc1
[reply] 4.41

---

Test system: MCF7
Experiment: cells
Settings: Homo sapiens, MCF7, 72 h
Readout kind: IC50

Examples from the recorded data:
Line notation: C[C@]12CC[C@H](OC(=O)Cn3cc(CN4C(=O)C(=O)c5cc(F)ccc54)nn3)CC1=CC[C@@H]1[C@@H]2CC[C@]2(C)C(=O)CC[C@@H]12
IC50: > 128 µM
--
Line notation: C[C@]12CC[C@H](OC(=O)Cn3cc(CN4C(=O)C(=O)c5c(Br)cccc54)nn3)CC1=CC[C@@H]1[C@@H]2CC[C@]2(C)C(=O)CC[C@@H]12
IC50: > 128 µM
--
Line notation: O=c1c(F)cn(Cc2cn(Cc3ccccc3Cl)nn2)c(=O)n1Cc1cn(Cc2ccccc2Cl)nn1
IC50: > 128 µM
--
Line notation: Cc1ccc(/C=C/C(=O)c2ccc(OCc3cn(CC(=O)O[C@H]4CC[C@@]5(C)C(=CC[C@@H]6[C@@H]5CC[C@]5(C)C(=O)CC[C@@H]65)C4)nn3)cc2)cc1
IC50: 73.3 µM
--
Line notation: C[C@]12CC[C@H](OC(=O)Cn3cc(CN4C(=O)C(=O)c5cc(Br)ccc54)nn3)CC1=CC[C@@H]1[C@@H]2CC[C@]2(C)C(=O)CC[C@@H]12
IC50: > 128 µM

API: the following record is the query input.
[ask] Report IC50 for C[C@]12CC[C@H](OC(=O)Cn3cc(CN4C(=O)C(=O)c5c(Cl)ccc(Cl)c54)nn3)CC1=CC[C@@H]1[C@@H]2CC[C@]2(C)C(=O)CC[C@@H]12
[reply] 32.2 µM

---

So I've got a bunch of molecules here, and I need their pIC50 values.
Assay: Antiproliferative activity against human MGC803 cells assessed as cell growth inhibition after 72 hrs by MTT assay
Format: functional, cell-based
Conditions: MGC-803, 72 h
Give bare numbers, as −log10 of the molar value.

Consider the following items and state reported pIC50 for each.
1. COc1ccc(NCc2cn(CC(=O)O[C@H]3CC[C@@]4(C)C(=CC[C@@H]5[C@@H]4CC[C@]4(C)C(=O)CC[C@@H]54)C3)nn2)cc1
2. O=c1[nH]cc(F)c(=O)[nH]1
3. C[C@]12CC[C@H](OC(=O)Cn3cc(CN4C(=O)C(=O)c5cc(F)ccc54)nn3)CC1=CC[C@@H]1[C@@H]2CC[C@]2(C)C(=O)CC[C@@H]12
4. C[C@]12CC[C@H](OC(=O)Cn3cc(CN4C(=O)C(=O)c5c(Br)cccc54)nn3)CC1=CC[C@@H]1[C@@H]2CC[C@]2(C)C(=O)CC[C@@H]12
5. C[C@]12CC[C@H](OC(=O)Cn3cc(CN4C(=O)C(=O)c5cccc(Cl)c54)nn3)CC1=CC[C@@H]1[C@@H]2CC[C@]2(C)C(=O)CC[C@@H]12
6. Cc1ccc(OCc2cn(CC(=O)O[C@H]3CC[C@@]4(C)C(=CC[C@@H]5[C@@H]4CC[C@]4(C)C(=O)CC[C@@H]54)C3)nn2)cc1

[reply]
1: 4.94; 2: 5.90; 3: 4.23; 4: 4.58; 5: 5.06; 6: 4.67

---

Assay: Antiproliferative activity against human MGC803 cells assessed as cell growth inhibition after 72 hrs by MTT assay
Format: functional, cell-based
Settings: MGC-803, 72 h
pIC50: −log10 of the molar value.
Readout kind: pIC50

Examples from the recorded data:
Line notation: C[C@]12CC[C@H](OC(=O)Cn3cc(COc4ccc(C(=O)/C=C/c5ccc(Cl)c(Cl)c5)cc4)nn3)CC1=CC[C@@H]1[C@@H]2CC[C@]2(C)C(=O)CC[C@@H]12
pIC50: < 3.89

Line notation: C[C@]12CC[C@H](OC(=O)Cn3cc(COc4ccc(/C=C/C(=O)c5ccc(F)cc5)cc4)nn3)CC1=CC[C@@H]1[C@@H]2CC[C@]2(C)C(=O)CC[C@@H]12
pIC50: < 3.89

[ask] Report pIC50 for Cc1cc(=O)oc2cc(OCc3cn(CC(=O)O[C@H]4CC[C@@]5(C)C(=CC[C@@H]6[C@@H]5CC[C@]5(C)C(=O)CC[C@@H]65)C4)nn3)ccc12
[reply] < 3.89
